Tested on: M14 melanoma
Assay Summary: NCI-60 one-dose screen, 48 h (100 = growth as untreated, 0 = no growth, -100 = all killed)
Assay Conditions: 10 µM unless noted
This is part of a sample that, as a whole, favours compounds with a hit. Of some 83,000 tested, about 20% had one in any assay.
Endpoint Name: growth (%)
Give your result in % as a bare value.

q: Entry COc1ccc(/C=C(\C#N)n2nnc3ccc(Cl)cc32)cc1 , system M14 melanoma: what growth was measured?
a: 58.1

q: Entry C#CCOc1cccc(Nc2ncnc3ccc(NC(=O)C=C)cc23)c1 , system M14 melanoma: what growth was measured?
a: 51.4

q: Entry CCOC(=O)c1c(NC(=O)c2cccc(C(F)(F)F)c2)sc2c(CN(C)C)c(O)ccc12 , system M14 melanoma: what growth was measured?
a: -57.8

q: Entry COc1ccc(OC)c(-c2nc(SCC(=O)c3ccc(C#N)cc3)[nH]c(=O)c2C#N)c1 , system M14 melanoma: what growth was measured?
a: 91.7
